tgt: T1, human CLDN18.2 (human)
T1 construct: also called huCLDN18.2; hCLDN18.2
experimentalProtocol: flow cytometry; % positive tumor cells divided by % positive healthy stomach cells
measurementLabel: Ratio tumor/stomach (Mouse 2)

binder	obsValue
IMAB362 (antibody, human IgG1, kappa, V domains shown, Control, chimeric IgG1, synthesized from the published chains; also called Claudiximab; Zolbetuximab) VH: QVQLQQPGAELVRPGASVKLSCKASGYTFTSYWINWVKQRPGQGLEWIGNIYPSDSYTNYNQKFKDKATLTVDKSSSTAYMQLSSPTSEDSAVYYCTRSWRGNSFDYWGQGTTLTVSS VL: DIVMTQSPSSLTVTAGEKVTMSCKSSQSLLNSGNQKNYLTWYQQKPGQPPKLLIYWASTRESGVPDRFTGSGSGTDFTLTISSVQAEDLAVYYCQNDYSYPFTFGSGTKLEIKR	0.29
hCl1b (antibody, human IgG1, kappa, V domains shown, Humanized) VH: QVQLVQSGAEVKKPGASVKVSCKASGYTFTDYAMHWVRQAPGQRLEWMGWINTYTGKPTYSQKFQGRVTITRDTSASTAYMELSSLRSEDTAVYYCARAVFYGYTMDAWGQGTLVTVSS VL: DIQMTQSPSSLSASVGDRVTITCRASEDIYSNLAWYQQKPGKAPKLLIFSVKRLQDGVPSRFSGSGSGTDFTLTISSLQPEDFATYYCLQGSNFPLTFGQGTKVEIKR	131
cCl1-1 (antibody, V domains shown, Chimeric antibody from a rat hybridoma; not built in; also called chimeric cCl1-1 antibody) VH: QIQLVQSGPELKKPGESVKISCKASGYTFTDYAMHWVKQAPGKGLKWMGWINTYTGKPTYADDFKGRFVFSLEASASTANLQISNLKNEDTATYFCARAVFYGYTMDAWGQGTSVTVSS VL: DIQMTQSPASLSASLGETISIACRASEDIYSNLAWYQQKSGKSPQLLIFSVKRLQDGVPSRFSGSGSGTQYSLKISGMQPEDEGDYFCLQGSNFPLTFGSGTKLEIK	50
